Test system: LDL
Assay: LDL oxidation by copper, conjugated diene formation (OD 234 nm)
Assay type: biochemical
Settings: relative to copper alone, FIG. 2a
Description: LDL were prepared as described in Lebeau et al. (Lebeau, Furman et al. 2000). […] Before oxidation, EDTA was removed from the LDL preparation by dialysis. […] The formation of dienes, the species to be followed, was measured by the optical density at 234 nm in the samples treated with the compounds in the presence or absence of copper (or MPH). Optical density at 234 nm was measured every 10 minutes for 8 hours on a thermostated spectrophotometer (Kontron Uvikon 930). […]
METRIC: increase in the lag phase (%)
One number for each entry, in %.

Reference set (4 entries):
CCCCCCCCCCCCCCSCC(=O)OC(COC(=O)CCCCCCC)COC(=O)CCCCCCC    54
CCCCCCCCCCCCCCSCC(=O)OCC(O)CO (centres unmarked)    67
CCCCCCCCCCCCCCCC(=O)OC(COC(=O)CSCCCCCCCCCCCCCC)COC(=O)CSCCCCCCCCCCCCCC    37
CCCCCCCCCCCCCCCC(=O)OCC(COC(=O)CCCCCCCCCCCCCCC)OC(=O)CSCCCCCCCCCCCCCC    170

Here is the next item to consider.
Any idea what its increase in the lag phase is? The compound is `CCCCCCCCCCCCCCSCC(=O)OCC(COC(=O)CSCCCCCCCCCCCCCC)OC(=O)CSCCCCCCCCCCCCCC` 160
